- protocolDetails: chemical genetic growth profiling, strain panel (AID 1159580);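 further: tested at 20 µM; growth read once vehicle control cultures reached saturation at 30 °C; lower values mean less growth of the strain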
- conditionNotes: S. cerevisiae deletion strains, growth OD, locus YJR043C, strain POL32
The campaign covered roughly 5,500 compounds. About 2,000 (36%) were called active. Inconclusive results (about 18%) are left out. No stated cut-off is given here; in the data, active means normalized growth mostly below about 0.91 (no sharp cut-off); inconclusive means no clear call, values can overlap the other calls; inactive means mostly above about 0.92. This is one part of the list.
Possible outcomes: active, inactive

[
  {
    "molecule": "CC(=O)Oc1ccc2c(c1)CCC1C2CC[C@]2(C)C(=O)CCC12 (stereo partly drawn)",
    "group": "inactive"
  },
  {
    "molecule": "CCC(=O)OC1[C@@H]2CC3=C4CC(=O)O[C@@H](c5ccoc5)[C@]4(C)CCC3[C@@](C)(C2=O)[C@@H](CC(=O)OC)C1(C)C (stereo partly drawn)",
    "group": "inactive"
  },
  {
    "molecule": "COc1ccc(C(=O)c2sc(Nc3ccccc3)nc2-c2ccccc2)cc1",
    "group": "inactive"
  },
  {
    "molecule": "O=C1c2ccccc2C2(c3ccccc3)NCCN12 (stereo not drawn)",
    "group": "inactive"
  },
  {
    "molecule": "N[C@@H](C(=O)O)[C@@H](O)[C@H](O)[C@H](O)CO",
    "group": "inactive"
  },
  {
    "molecule": "CC(=O)O[C@@H]1CC2C(C)(C)[C@@H](O)CC[C@]2(C)C2CC[C@@]3(C)[C@H](c4ccoc4)OC(=O)[C@H]4O[C@]43[C@@]21C (stereo partly drawn)",
    "group": "inactive"
  },
  {
    "molecule": "CCOC(=O)c1ccc(Oc2ccc(Cl)cc2Cl)c([N+](=O)[O-])c1",
    "group": "inactive"
  },
  {
    "molecule": "O=NN(CCCl)C(=O)NCCCl",
    "group": "active"
  },
  {
    "molecule": "COc1ccc(CCC(=O)c2c(O)cc(O[C@@H]3O[C@H](CO)C(O)[C@H](O)C3O[C@@H]3O[C@@H](C)[C@H](O)[C@@H](O)[C@H]3O)cc2O)cc1O (stereo partly drawn)",
    "group": "inactive"
  },
  {
    "molecule": "COc1cc(C)c2c(=O)cc(-c3ccccc3)oc2c1",
    "group": "inactive"
  },
  {
    "molecule": "O=C(O)C(O)C(O)C(O)C(O)C(=O)O (stereo not drawn)",
    "group": "inactive"
  },
  {
    "molecule": "CCOC(=O)c1sc2sc(C(=O)c3ccc(Cl)cc3)c(C)c2c1C",
    "group": "inactive"
  },
  {
    "molecule": "Clc1ccc(CSC(Cn2ccnc2)c2ccc(Cl)cc2Cl)cc1 (stereo not drawn)",
    "group": "active"
  },
  {
    "molecule": "COC(=O)[C@@H]1OC(=O)C2OC23[C@@]1(C)CCC1[C@@]2(C)CCC(=O)C(C)(C)C2C[C@@H](OC(C)=O)[C@]13C (stereo partly drawn)",
    "group": "inactive"
  },
  {
    "molecule": "CC(=O)OCC(=O)[C@@]1(O)CCC2C3CCC4=CC(=O)C=CC4(C)C3[C@@H](O)C[C@@]21C (stereo partly drawn)",
    "group": "inactive"
  },
  {
    "molecule": "CC(C)c1nc(N(C)S(C)(=O)=O)nc(-c2ccc(F)cc2)c1/C=C/[C@@H](O)C[C@@H](O)CC(=O)O",
    "group": "inactive"
  },
  {
    "molecule": "Oc1c(Cl)cc(Cl)c(Cl)c1Cc1c(O)c(Cl)cc(Cl)c1Cl",
    "group": "active"
  },
  {
    "molecule": "CC1(C)C(=O)[C@@H]2O[C@@H]2[C@@]2(C)C1C[C@@H](O)[C@]1(C)C2CC[C@@]2(C)[C@H](c3ccoc3)OC(=O)C3OC321 (stereo partly drawn)",
    "group": "inactive"
  },
  {
    "molecule": "CCOC(=O)c1ccc(Oc2sccc2[N+](=O)[O-])cc1",
    "group": "active"
  },
  {
    "molecule": "FC(F)(F)c1cc(Cl)c2nsnc2c1",
    "group": "inactive"
  },
  {
    "molecule": "c1ccc2c(CC3=NCCN3)cccc2c1",
    "group": "inactive"
  },
  {
    "molecule": "O=c1oc2ccccc2cc1[N+](=O)[O-]",
    "group": "active"
  },
  {
    "molecule": "CC(=O)NCCc1c[nH]c2ccc(O)cc12",
    "group": "inactive"
  },
  {
    "molecule": "CCCN(CCC)S(=O)(=O)c1ccc(C(=O)NCC(=O)O)cc1",
    "group": "inactive"
  },
  {
    "molecule": "O=C(O)C(O)C(O)C(=O)O (stereo not drawn)",
    "group": "inactive"
  },
  {
    "molecule": "COC(=O)c1ccsc1N",
    "group": "inactive"
  },
  {
    "molecule": "NCCCCCC(=O)O",
    "group": "inactive"
  },
  {
    "molecule": "FC(F)(F)c1ccc2[nH]c(=S)[nH]c2c1",
    "group": "inactive"
  },
  {
    "molecule": "CC12CCC3C(=CCc4cc(O)ccc43)C1CCC2=O (stereo not drawn)",
    "group": "inactive"
  },
  {
    "molecule": "COc1ccc(-c2cc(=O)c3c(OC)cc(OC)cc3o2)cc1",
    "group": "inactive"
  },
  {
    "molecule": "COc1ccc2c(c1)OCC(Cc1ccc(OC)c(O)c1)C2=O (stereo not drawn)",
    "group": "inactive"
  },
  {
    "molecule": "CC(=O)O[C@H]1C[C@@]2(C)[C@@H](C[C@@H](O)C3[C@]2(C)CC[C@H]2[C@H](C)[C@H](O)CC[C@]32C)/C1=C(/CCC=C(C)C)C(=O)O (stereo partly drawn)",
    "group": "inactive"
  },
  {
    "molecule": "O=S(=O)(NCCc1ccncc1)c1cc(C(F)(F)F)cc(C(F)(F)F)c1",
    "group": "inactive"
  },
  {
    "molecule": "COC(=O)c1cscc1Sc1ccc(Cl)cc1",
    "group": "inactive"
  },
  {
    "molecule": "O=S(=O)(c1ccc(Cl)cc1)c1cc(C(F)(F)F)cc(C(F)(F)F)c1",
    "group": "inactive"
  },
  {
    "molecule": "C1N2CN3CN1CN(C2)C3",
    "group": "inactive"
  },
  {
    "molecule": "COc1ccc(-c2nc(-c3ccc(-c4ccccc4)cc3)cs2)cc1",
    "group": "inactive"
  },
  {
    "molecule": "COc1ccc2c(c1)OCC(Cc1ccc(OC)c(OC)c1)C2=O (stereo not drawn)",
    "group": "inactive"
  },
  {
    "molecule": "C=NC(C(=O)NC1C(=O)N2C1SC(C)(C)C2C(=O)O)c1ccccc1 (stereo not drawn)",
    "group": "inactive"
  },
  {
    "molecule": "COc1cc(OC)c2c(=O)cc(-c3ccccc3)oc2c1",
    "group": "inactive"
  },
  {
    "molecule": "CC(=O)OC1CC(OC(C)=O)C2(C)C(CC(OC(C)=O)C3(C)C2CCC2(C)C(c4ccoc4)OC(=O)C4OC423)C1(C)C (stereo not drawn)",
    "group": "inactive"
  },
  {
    "molecule": "NCCCC(=O)O",
    "group": "inactive"
  },
  {
    "molecule": "CCOC(=O)C(=CNNS(=O)(=O)c1cc(C(F)(F)F)cc(C(F)(F)F)c1)C(=O)OCC",
    "group": "inactive"
  }
]

This collection of values is drawn from PubChem BioAssay AID1159580.
